Can you tell me max response for the items I'm about to list?
- METHOD_NOTES: qHTS assay for small molecule antagonists of retinoid X receptor alpha signaling (AID 588546);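 note: cells stimulated with 9-cis-retinoic acid as agonist; % is set by controls: 0 for no effect and ±100 for the full control effect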
- STUDY_CONDITIONS: HEK293T RXRa-UAS-bla, beta-lactamase ratio, antagonist mode; measured here: W530 green channel, cytotoxicity proxy
Inconclusive results are not listed.
Provide the reading as a plain figure in %.

Record summary for `CCc1cccc(CC)c1N(COC)C(=O)CCl` : reported max response = 18.2

Record summary for `C=CCOC(=O)c1ccccc1N` : reported max response = -12.2

Record summary for O=S1OCC2C(CO1)C1(Cl)C(Cl)=C(Cl)C2(Cl)C1(Cl)Cl (stereo not given) : reported max response = 1.46

Record summary for `c1nc[nH]n1` : reported max response = 6.06

Record summary for `CC(C)OC(=O)Nc1cccc(Cl)c1` : reported max response = -4.63

Record summary for `C=CCc1ccc(OC)cc1` : reported max response = -1.65

Record summary for `CCN(CC)c1ccccc1` : reported max response = -5.5

Record summary for `Nc1ccc(Br)cc1` : reported max response = 3.4

Record summary for `COC1=CC(=O)O[C@@H](/C=C/c2ccc3c(c2)OCO3)C1` : reported max response = 10.1

Record summary for `CC(C)(c1ccccc1)c1ccc(O)cc1` : reported max response = -11.5

Record summary for `O=[N+]([O-])c1ccc(Cl)c(Cl)c1` : reported max response = -6.04

Record summary for C=C(C)C(=O)OCC1CO1 (stereo not given) : reported max response = -2.75

Record summary for CCS(=O)CCSP(=O)(OC)OC (stereo not given) : reported max response = -0.327

Record summary for `CCCCCCCCCc1ccc(O)cc1` : reported max response = -16.1

Record summary for `O=C(Cl)C(Cl)(Cl)Cl` : reported max response = 2.3

* * *

- METHOD_NOTES: qHTS Assay for Identification of Small Molecule Antagonists for NFkB Signaling Pathway (AID 895)
- STUDY_CONDITIONS: NFkB beta-lactamase reporter cells, FRET ratio 460/530; series mostly up to 38.3 µM
Inconclusive results are not listed. Active and inactive are the calls of the source. Calls come from the whole dose curve; as a rule, active = well fitted inhibition curve with a large enough effect in the signal ratio, with a control signal flat (not every such curve was filed as active); inconclusive = small, poorly fitted or top-dose-only effect, or effect the other way, or a change in a side signal; inactive = flat fitted curve, though single readings scatter; the % refers to the signal ratio.
Pick one: 1 for active, -1 for inactive

[ask] What did this assay record as the result for `C#CCN(C)[C@@H](C)Cc1ccccc1` ?
[reply] -1

[ask] What did this assay record as the result for `N#C/C(=C\c1ccc(O)c(O)c1)C(N)=S` ?
[reply] 1

[ask] What did this assay record as the result for `CCCN(CCC)C(=O)Cc1c(-c2ccc(Cl)cc2)nc2c(Cl)cc(Cl)cn12` ?
[reply] -1

[ask] What did this assay record as the result for `CCc1c(C(=O)OC)ncc2[nH]c3cc(OC)c(OC)cc3c12` ?
[reply] 1

[ask] What did this assay record as the result for `CC(C)N(CC[C@@](C(N)=O)(c1ccccc1)c1ccccn1)C(C)C` ?
[reply] -1

[ask] What did this assay record as the result for `COc1ccc(OC)c([C@H](O)[C@H](C)N)c1` ?
[reply] -1

* * *

- METHOD_NOTES: Cell Viability - LYMP2-005 (AID 967);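 note: cells exposed to compound for 24 h at 37 °C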
- STUDY_CONDITIONS: LYMP2-005 lymphoblastoid cell viability; series mostly up to 92.2 µM
Records with an inconclusive call do not appear. Activity calls are given as the source filed them. Calls come from the whole dose curve; as a rule, active = well fitted cell-killing curve with a large enough effect; inconclusive = small, poorly fitted or top-dose-only effect, or effect the other way; inactive = no such curve, though single readings can be large or run the other way.
Pick one: active, inactive

[ask] What did this assay record as the result for `C=CC(N)=O` ?
[reply] inactive

[ask] What did this assay record as the result for `C=CCc1ccc(OC)cc1` ?
[reply] inactive

[ask] What did this assay record as the result for `Clc1nc(Cl)nc(Cl)n1` ?
[reply] inactive

[ask] What did this assay record as the result for `COC(=O)NC(=S)Nc1ccccc1NC(=S)NC(=O)OC` ?
[reply] inactive

[ask] What did this assay record as the result for `CCOc1ccc(N)cc1` ?
[reply] inactive

[ask] What did this assay record as the result for `O=NN(CCO)CCO` ?
[reply] inactive

[ask] What did this assay record as the result for `Oc1ccc(Cl)cc1Cl` ?
[reply] inactive

[ask] What did this assay record as the result for `O=C(Cl)C(Cl)(Cl)Cl` ?
[reply] inactive

[ask] What did this assay record as the result for `C=CC(=O)OCC` ?
[reply] inactive

[ask] What did this assay record as the result for `CCCOC(=O)c1ccccc1C(=O)OCCC` ?
[reply] inactive

[ask] What did this assay record as the result for `CCOP(=S)(OCC)SCSC(C)(C)C` ?
[reply] inactive

[ask] What did this assay record as the result for `CCSC(=O)Cl` ?
[reply] inactive

[ask] What did this assay record as the result for `CCN(CC)c1ccccc1` ?
[reply] inactive

[ask] What did this assay record as the result for `[O-][Br+2]([O-])O` ?
[reply] inactive

[ask] What did this assay record as the result for `Cc1ccc2ccccc2c1` ?
[reply] inactive

[ask] What did this assay record as the result for `CCCCCCCCCc1ccc(O)cc1` ?
[reply] inactive

[ask] What did this assay record as the result for `C[C@]12CC[C@H]3[C@@H](CCC4=CC(=O)CC[C@@]43C)[C@@H]1CC[C@@H]2O` ?
[reply] inactive

[ask] What did this assay record as the result for `COc1ccc(N)cc1` ?
[reply] inactive

[ask] What did this assay record as the result for `CC(=O)[O-].CC(=O)[O-].O.O.O.[Pb+2]` ?
[reply] inactive

[ask] What did this assay record as the result for CC(O)CCl (stereo not given) ?
[reply] inactive

[ask] What did this assay record as the result for `ClC(Cl)=C(Cl)C(Cl)=C(Cl)Cl` ?
[reply] inactive

[ask] What did this assay record as the result for `O=NN(c1ccccc1)c1ccccc1` ?
[reply] inactive

[ask] What did this assay record as the result for `CCCSC(=O)Cl` ?
[reply] inactive

[ask] What did this assay record as the result for `Cc1cccc([N+](=O)[O-])c1` ?
[reply] inactive

[ask] What did this assay record as the result for `COP(=S)(OC)Oc1ccc([N+](=O)[O-])cc1` ?
[reply] inactive

[ask] What did this assay record as the result for `Nc1ccccc1Cl` ?
[reply] inactive

[ask] What did this assay record as the result for `O=[N+]([O-])c1ccc(Cl)c(Cl)c1` ?
[reply] inactive

[ask] What did this assay record as the result for `C=CC(C)=O` ?
[reply] inactive

[ask] What did this assay record as the result for `CC(C)(c1ccccc1)c1ccc(O)cc1` ?
[reply] inactive

[ask] What did this assay record as the result for ClC1=C(Cl)C2(Cl)C3C4CC(C5OC45)C3C1(Cl)C2(Cl)Cl (stereo not given) ?
[reply] active

[ask] What did this assay record as the result for `N#CCCCl` ?
[reply] inactive

[ask] What did this assay record as the result for `S=C=Nc1cccc2ccccc12` ?
[reply] inactive

[ask] What did this assay record as the result for `Clc1ccc2ccccc2c1` ?
[reply] inactive

[ask] What did this assay record as the result for C=C(C)C(=O)OCC1CO1 (stereo not given) ?
[reply] inactive

[ask] What did this assay record as the result for `ClC(Cl)(Cl)c1ccccc1` ?
[reply] inactive

[ask] What did this assay record as the result for `C=CCOC(C)=O` ?
[reply] inactive

[ask] What did this assay record as the result for OCC(Br)CBr (stereo not given) ?
[reply] inactive

[ask] What did this assay record as the result for `CCCCOCCOP(=O)(OCCOCCCC)OCCOCCCC` ?
[reply] inactive

[ask] What did this assay record as the result for `c1ccc2c(c1)CCCC2` ?
[reply] inactive

[ask] What did this assay record as the result for `O=C(O)COc1ccc(Cl)cc1Cl` ?
[reply] inactive

* * *

- System: CP211
- METHOD_NOTES: qHTS profiling for inhibitors of Plasmodium falciparum proliferation (AID 504749); note: nearly all actives have a fitted effect of over 60% in size
- STUDY_CONDITIONS: P. falciparum in erythrocytes, SYBR Green DNA, 72 h; series mostly up to 28.7 µM
Results filed as inconclusive are left out. Calls of active or inactive are those of the source. The call rests on the fitted dose curve; in most records, active means well fitted inhibition curve with a large enough effect; inconclusive means small, poorly fitted or top-dose-only effect; inactive means flat fitted curve, though single readings scatter.
Pick one: Yes (active), No (inactive)

[ask] What did this assay record as the result for C[N+]1([O-])[C@@H]2CC(OC(=O)[C@@H](CO)c3ccccc3)C[C@@H]1[C@H]1O[C@H]12 (stereo partly specified) ?
[reply] No

[ask] What did this assay record as the result for C[N+]1([O-])[C@@H]2CC[C@H]1CC(OC(=O)[C@@H](CO)c1ccccc1)C2 (stereo partly specified) ?
[reply] No

[ask] What did this assay record as the result for `CN(C)[C@@H]1C(=O)C(C(N)=O)=C(O)[C@]2(O)C(=O)C3=C(O)c4c(O)ccc(Cl)c4[C@](C)(O)[C@H]3C[C@@H]12` ?
[reply] No

[ask] What did this assay record as the result for `COc1cc(N)c(Cl)cc1C(=O)N[C@@H]1CN2CCC1CC2` ?
[reply] No

[ask] What did this assay record as the result for `NCC[C@H](O)C(=O)N[C@H]1C[C@@H](N)[C@@H](O[C@H]2O[C@@H](CN)[C@@H](O)[C@@H](O)[C@@H]2N)[C@@H](O[C@H]2O[C@@H](CO)[C@@H](O)[C@@H]2O)[C@@H]1O` ?
[reply] No

[ask] What did this assay record as the result for C=CC1CN2CCC1CC2C(OC(=O)OCC)c1ccnc2ccc(OC)cc12 (stereo unspecified) ?
[reply] Yes
